Lab note: MIC readings collected with Bacillus subtilis PCI 219 for the following molecules.
Answers are plain numbers, in mg/L.

NC[C@H]1O[C@H](O[C@H]2[C@H](O)[C@@H](O[C@H]3O[C@H](CO)[C@@H](O)[C@H](N)[C@H]3O)[C@H](N)C[C@@H]2N)CC[C@@H]1O; 0.39
NCC[C@H](O)C(=O)N[C@@H]1C[C@H](N)[C@@H](O[C@H]2O[C@H](CN)[C@@H](O)[C@H](O)[C@H]2O)[C@H](O)[C@H]1O[C@H]1O[C@H](CO)[C@@H](O)[C@H](N)[C@H]1O [Amikacin, reference compound]; 0.39
NC[C@H](O)C(=O)N[C@@H]1C[C@H](N)[C@@H](O[C@@H]2CC[C@H](O)[C@@H](CN)O2)[C@H](O)[C@H]1O[C@H]1O[C@H](CO)[C@@H](O)[C@H](N)[C@H]1O; 0.39

stdin: Item under review: "NCC[C@H](O)C(=O)N[C@@H]1C[C@H](N)[C@@H](O[C@@H]2CC[C@H](O)[C@@H](CN)O2)[C@H](O)[C@H]1O[C@H]1O[C@H](CO)[C@@H](O)[C@H](N)[C@H]1O" . Reported MIC?
stdout: 0.2

###

experiment: acute toxicity by intravenous injection in mice; conditions: mouse, in vivo
observedProperty: LD50 (mg/kg)
One number for each entry, in mg/kg.

NC[C@H](O)C(=O)N[C@@H]1C[C@H](N)[C@@H](O[C@@H]2CC[C@H](O)[C@@H](CN)O2)[C@H](O)[C@H]1O[C@H]1O[C@H](CO)[C@@H](O)[C@H](N)[C@H]1O [ISDK]; 240

// next item, LD50 requested
stdin: Consider the molecule NCC[C@H](O)C(=O)N[C@@H]1C[C@H](N)[C@@H](O[C@@H]2CC[C@H](O)[C@@H](CN)O2)[C@H](O)[C@H]1O[C@H]1O[C@H](CO)[C@@H](O)[C@H](N)[C@H]1O [AHDK] and give its measured LD50.
stdout: 326

###

Measurement record for Escherichia coli ML 1630; quantity recorded: MIC.
Numbers only, in µg/mL.

// solved cases for MIC follow
NCC[C@H](O)C(=O)N[C@@H]1C[C@H](N)[C@@H](O[C@@H]2CC[C@H](O)[C@@H](CN)O2)[C@H](O)[C@H]1O[C@H]1O[C@H](CO)[C@@H](O)[C@H](N)[C@H]1O; 1.56
NC[C@H](O)C(=O)N[C@@H]1C[C@H](N)[C@@H](O[C@@H]2CC[C@H](O)[C@@H](CN)O2)[C@H](O)[C@H]1O[C@H]1O[C@H](CO)[C@@H](O)[C@H](N)[C@H]1O; 3.13

Hello, I would appreciate it if you could give MIC for each entry below.
1. NCC[C@H](O)C(=O)N[C@@H]1C[C@H](N)[C@@H](O[C@H]2O[C@H](CN)[C@@H](O)[C@H](O)[C@H]2O)[C@H](O)[C@H]1O[C@H]1O[C@H](CO)[C@@H](O)[C@H](N)[C@H]1O [Amikacin, reference compound]
2. NC[C@H]1O[C@H](O[C@H]2[C@H](O)[C@@H](O[C@H]3O[C@H](CO)[C@@H](O)[C@H](N)[C@H]3O)[C@H](N)C[C@@H]2N)CC[C@@H]1O

stdout:
1: 3.13; 2: 3.13

Data provenance is patent US4547492A.
